Tested on: NCI-H358 (ATCC-CRL5807) cells
TEST_PROTOCOL: Cell viability assay, G12C (NCI-H358)
Format: cell-based, human
SETTINGS: Homo sapiens; KRAS cell viability, NCI-H358, 72 hrs, Cell Counting Kit-8
READOUT_LABEL: IC50

Consider the worked cases shown below.
MOLECULE: CO[C@@H](C)c1ncc(N2CCN(C)CC2)cc1-c1c2c3cc(c(F)cc3n1CC(F)(F)F)-c1csc(n1)C[C@H](NC(=O)[C@H](C(C)C)N1CCCC3(CN(C(=O)[C@H](F)Cl)C3)C1=O)C(=O)N1CCC[C@H](N1)C(=O)OCC(C)(C)C2 (atropisomer, axis not shown; (M))
IC50: < 1 nM
--
MOLECULE: CCn1c(-c2cc(N3CCOCC3)cnc2[C@H](C)OC)c2c3cc(c(F)cc31)-c1csc(n1)C[C@H](NC(=O)[C@H](C(C)C)N1CCC3(CN(C(=O)[C@H](F)Cl)C3)C1=O)C(=O)N1CCC[C@H](N1)C(=O)OCC(C)(C)C2 (atropisomer, axis not shown; (M))
IC50: < 1 nM

Would you kindly look at the next entry?
Problem: Provide measured IC50 value, entry: CO[C@@H](C)c1ncc(N2CCN(CC(F)(F)F)CC2)cc1-c1c2c3cc(c(F)cc3n1CC(F)(F)F)-c1csc(n1)C[C@H](NC(=O)[C@H](C(C)C)N1CC[C@@]3(CCN(C(=O)[C@H](F)Cl)C3)C1=O)C(=O)N1CCC[C@H](N1)C(=O)OCC(C)(C)C2 (atropisomer, axis not shown)
Result: < 1 nM

---

System: AGS (ATCC-CRL-1739) cells
TEST_PROTOCOL: Cell viability assay, G12D (AGS)
Type: cell-based, human
SETTINGS: Homo sapiens, KRAS cell viability, 72 hrs, Cell Counting Kit-8
Just a reminder that ties go to not met: only IC50 strictly below 300 nM counts as met.

The following molecules have reported results that may help.
MOLECULE: CO[C@@H](C)c1ncc(N2CCN(CC(F)(F)F)CC2)cc1-c1c2c3cc(c(F)cc3n1CC(F)(F)F)-c1csc(n1)C[C@H](NC(=O)[C@H](C(C)C)N1CCCC3(CCN(C(=O)[C@H](F)Cl)CC3)C1=O)C(=O)N1CCC[C@H](N1)C(=O)OCC(C)(C)C2 (atropisomer, axis not shown; (M))
LABEL_VALUE: met
//
MOLECULE: CO[C@@H](C)c1ncc(N2CCN(CC(F)(F)F)CC2)cc1-c1c2c3cc(c(F)cc3n1CC(F)(F)F)-c1csc(n1)C[C@H](NC(=O)[C@H](C(C)C)N1CC[C@@]3(CCN(C(=O)[C@H](F)Cl)C3)C1=O)C(=O)N1CCC[C@H](N1)C(=O)OCC(C)(C)C2 (atropisomer, axis not shown)
LABEL_VALUE: met
//
MOLECULE: CCn1c(-c2cc(N3CCOCC3)cnc2[C@H](C)OC)c2c3cc(c(F)cc31)-c1csc(n1)C[C@H](NC(=O)[C@H](C(C)C)N1CCC3(CN(C(=O)[C@H](F)Cl)C3)C1=O)C(=O)N1CCC[C@H](N1)C(=O)OCC(C)(C)C2 (atropisomer, axis not shown; (M))
LABEL_VALUE: not met
//
MOLECULE: CCn1c(-c2cc(N3CCN(C)CC3)cnc2[C@H](C)OC)c2c3cc(c(F)cc31)-c1csc(n1)C[C@H](NC(=O)[C@H](C(C)C)N(C)C(=O)[C@H]1CCN(C(=O)[C@H](F)Cl)C1)C(=O)N1CCC[C@H](N1)C(=O)OCC(C)(C)C2 (atropisomer, axis not shown; (M))
LABEL_VALUE: not met
//
MOLECULE: CCn1c(-c2cc(N3CCN(CC(F)(F)F)CC3)cnc2[C@H](C)OC)c2c3cc(c(F)cc31)-c1csc(n1)C[C@H](NC(=O)[C@H](C(C)C)N(C)C(=O)[C@H]1CCN(C(=O)[C@H](F)Cl)C1)C(=O)N1CCC[C@H](N1)C(=O)OCC(C)(C)C2 (atropisomer, axis not shown; (M))
LABEL_VALUE: not met
//
MOLECULE: CCn1c(-c2cccnc2COC)c2c3cc(ccc31)-c1cc(O)cc(c1)C[C@H](NC(=O)[C@H](C(C)C)N(C)C(=O)C1CN(C(=O)[C@H](F)Cl)C1)C(=O)N1CCC[C@H](N1)C(=O)OCC(C)(C)C2 [RM461-A, reference compound]
LABEL_VALUE: not met

Please look at the following molecule next.
Problem: # TODO verify IC50 < 300 nM strictly for this molecule: CO[C@@H](C)c1ncc(N2CCN(C)CC2)cc1-c1c2c3cc(c(F)cc3n1CC(F)(F)F)-c1csc(n1)C[C@H](NC(=O)[C@H](C(C)C)N1CCC[C@]3(CCN(C(=O)[C@H](F)Cl)C3)C1=O)C(=O)N1CCC[C@H](N1)C(=O)OCC(C)(C)C2 (single isomer, unassigned)
Result: not met

All values here come from patent US20250206761A1.
